# IC50 per record follows
Measured Target: Glutathione reductase, mitochondrial (Homo sapiens, UniProt P00390)
Sequence (P00390 whole entry): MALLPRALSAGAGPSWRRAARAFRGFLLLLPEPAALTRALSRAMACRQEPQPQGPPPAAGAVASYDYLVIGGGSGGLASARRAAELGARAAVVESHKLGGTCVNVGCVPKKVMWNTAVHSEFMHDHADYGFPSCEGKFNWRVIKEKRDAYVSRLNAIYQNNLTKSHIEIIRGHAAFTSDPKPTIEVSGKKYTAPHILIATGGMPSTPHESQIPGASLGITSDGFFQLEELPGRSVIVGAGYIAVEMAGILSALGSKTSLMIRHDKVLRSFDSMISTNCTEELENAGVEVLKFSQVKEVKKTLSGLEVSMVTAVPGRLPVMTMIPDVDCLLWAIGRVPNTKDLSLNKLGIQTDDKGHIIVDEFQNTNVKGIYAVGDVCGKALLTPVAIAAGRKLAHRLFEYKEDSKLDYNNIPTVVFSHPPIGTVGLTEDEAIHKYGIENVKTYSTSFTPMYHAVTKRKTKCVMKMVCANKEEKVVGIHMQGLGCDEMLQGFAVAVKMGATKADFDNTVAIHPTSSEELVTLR
Procedure Summary: Inhibition of human recombinant GR after 15 mins in presence of NADPH

Solved cases (6 shown):
[O-][n+]1onc(-c2ccccc2)c1CO
> 50 µM
N#Cc1c(-c2cccc(-c3no[n+]([O-])c3C#N)c2)no[n+]1[O-]
> 50 µM
N#Cc1c(-c2ccc(Br)cc2)no[n+]1[O-]
> 50 µM
N#Cc1c(-c2ccc(Cl)cc2)no[n+]1[O-]
> 50 µM
O=C(O)c1c(-c2ccccc2)no[n+]1[O-]
> 50 µM
N#Cc1c(-c2cccc(Br)c2)no[n+]1[O-]
> 50 µM

// below: IC50 requested for another molecule
INPUT: Value wanted: IC50 (Glutathione reductase, mitochondrial (Homo sapiens, UniProt P00390)) of entry N#Cc1c(-c2ccc(F)c(Br)c2)no[n+]1[O-]
OUTPUT: > 50 µM

----------
Procedure Summary: Induction of nitric oxide release at 10 uM in presence of cysteine
Assay type: physicochemical
Output Yes for Activity not less than 60%; output No otherwise.

N#Cc1c(-c2ccc(F)c(Br)c2)no[n+]1[O-]
Yes
N#Cc1c(-c2cccc(Br)c2)no[n+]1[O-]
Yes
N#Cc1c(-c2ccc(F)cc2)no[n+]1[O-]
No
O=Cc1c(-c2ccccc2)no[n+]1[O-]
No
COc1ccc(-c2no[n+]([O-])c2C#N)cc1
No

Now consider the entry below.
INPUT: Answer whether Activity of N#Cc1c(-c2cccc(Cl)c2)no[n+]1[O-] is greater than or equal to 60%.
OUTPUT: No

----------
Procedure Summary: Solubility by quantitative nitrogen detection based method
# solubility per record follows
Write the value in µM as a bare number.

Solved cases (3 shown):
N#Cc1c(-c2cccc(-c3no[n+]([O-])c3C#N)c2)no[n+]1[O-]
5
N#Cc1c(-c2cc(F)cc(-c3no[n+]([O-])c3C#N)c2)no[n+]1[O-]
89.1
N#Cc1c(-c2ccc(Br)cc2)no[n+]1[O-]
18.6

// below: solubility requested for another compound
INPUT: # get_value(readout='solubility', item= N#Cc1c(-c2cccs2)no[n+]1[O-] )
OUTPUT: 240

----------
Procedure Summary: Reactivity with cysteine at 0.1 mM in 0.1M phosphate buffer assessed as amount of compound unreacted by HPLC
Active and inactive are the calls of the source. No cut-off for these calls is given here.
Pick one and only one: Yes for active, No for inactive

# example entries with known answers
N#Cc1c(C(=O)c2cccs2)no[n+]1[O-]
Yes
N#Cc1no[n+]([O-])c1-c1ccccc1
Yes
Cc1c(-c2ccccc2)no[n+]1[O-]
No

INPUT: Please indicate how the test categorized N#Cc1c(-c2ccccc2)no[n+]1[O-] .
OUTPUT: Yes

INPUT: Please indicate how the test categorized N#Cc1c(-c2cc(F)cc(-c3no[n+]([O-])c3C#N)c2)no[n+]1[O-] .
OUTPUT: Yes

INPUT: Please indicate how the test categorized O=C(c1cccs1)c1no[n+]([O-])c1C(=O)c1cccs1 .
OUTPUT: Yes

----------
Procedure Summary: Metabolic stability in human liver microsomes assessed as compound remaining over 60 mins in presence of NADPH
Assay type: ADME, Microsome
Condition Info: read-out: Stability
# remaining at 1 h per record follows
Write the value in % as a bare number.

INPUT: # get_value(readout='remaining at 1 h', item= N#Cc1c(-c2cc(F)cc(-c3no[n+]([O-])c3C#N)c2)no[n+]1[O-] )
OUTPUT: 20

INPUT: # get_value(readout='remaining at 1 h', item= N#Cc1c(-c2ccc(Br)cc2)no[n+]1[O-] )
OUTPUT: 10

INPUT: # get_value(readout='remaining at 1 h', item= N#Cc1c(-c2cccs2)no[n+]1[O-] )
OUTPUT: 1

src = ChEMBL document CHEMBL1155233
